Ref: paper PMC12693416

Tested on: hyperlipidaemic mice
Test: Tyloxapol (Triton WR 1339)-induced hyperlipidemia, plasma lipid parameters
Type: in vivo
Run Parameters: Mus musculus, ip, 24 h; i.p. 84 μmol/kg; LDL calculated as 3/4*(TC-HDL); read-out: % LDL Decrease
Observed Property: inhibition in vivo at 84 µmol/kg (%)
Supply the numeric figure in %, leaving out any unit text.

For orientation, consider the following solved cases.
Molecule: COc1cc(C(=O)N2CC(c3ccc(-c4ccccc4)cc3)Sc3ccccc32)cc(OC)c1OC (centres unmarked)
Measurement Target: hyperlipidaemic mice
Output Unit: %
inhibition in vivo at 84 µmol/kg: 73

Molecule: CC(C)Cc1ccc(C(C)C(=O)N2CC(c3ccc(-c4ccccc4)cc3)Sc3ccccc32)cc1 (centres unmarked)
Measurement Target: hyperlipidaemic mice
Output Unit: %
inhibition in vivo at 84 µmol/kg: 68

Response field inhibition in vivo at 84 µmol/kg (hyperlipidaemic mice) for item O=C(/C=C/c1ccccc1)N1CCSC(c2ccc(-c3ccccc3)cc2)C1 (centres unmarked) : 57

Response field inhibition in vivo at 84 µmol/kg (hyperlipidaemic mice) for item COc1cc(/C=C/C(=O)N2CCSC(c3ccc(-c4ccccc4)cc3)C2)ccc1O (centres unmarked) : 59

Response field inhibition in vivo at 84 µmol/kg (hyperlipidaemic mice) for item COc1ccc(/C=C/C(=O)N2CC(c3ccc(-c4ccccc4)cc3)Sc3ccccc32)cc1OC (centres unmarked) : 59

Response field inhibition in vivo at 84 µmol/kg (hyperlipidaemic mice) for item CC(C)(C)c1cc(/C=C/C(=O)N2CCSC(c3ccc(-c4ccccc4)cc3)C2)cc(C(C)(C)C)c1O (centres unmarked) : 49

Response field inhibition in vivo at 84 µmol/kg (hyperlipidaemic mice) for item c1ccc(-c2ccc(C3CNc4ccccc4S3)cc2)cc1 (centres unmarked) : 48

Response field inhibition in vivo at 84 µmol/kg (hyperlipidaemic mice) for item Cc1c(C)c2c(c(C)c1O)CCC(C)(C(=O)N1CCSC(c3ccc(-c4ccccc4)cc3)C1)O2 (centres unmarked) : 23

---

Measurement Target: soybean lipoxygenase (LOX-3)
Test: Soybean lipoxygenase (LOX-3) inhibition
Type: biochemical
Run Parameters: after 5 min of incubation; sodium linoleate 100 μM, pH 9.0
Values of IC50 strictly less than 80 µM map to Satisfied, and values of at least 80 µM map to Not satisfied.

Previously resolved entries follow.
Compound: c1ccc(-c2ccc(C3CNc4ccccc4S3)cc2)cc1 (centres unmarked)
Assigned Label: Not satisfied
--
Compound: CC(C)(C)c1cc(C(=O)N2CC(c3ccc(-c4ccccc4)cc3)Sc3ccccc32)cc(C(C)(C)C)c1O (centres unmarked)
Assigned Label: Not satisfied
--
Compound: CC(C)Cc1ccc(C(C)C(=O)O)cc1 (centres unmarked) [ibuprofen, reference compound]
Assigned Label: Not satisfied
--
Compound: O=C(/C=C/c1ccccc1)N1CCSC(c2ccc(-c3ccccc3)cc2)C1 (centres unmarked)
Assigned Label: Not satisfied
--
Compound: CC(C)Cc1ccc(C(C)C(=O)N2CC(c3ccc(-c4ccccc4)cc3)Sc3ccccc32)cc1 (centres unmarked)
Assigned Label: Not satisfied
--
Compound: O=C(c1cc(O)c(O)c(O)c1)N1CCSC(c2ccc(-c3ccccc3)cc2)C1 (centres unmarked)
Assigned Label: Satisfied
--
Compound: COc1ccc(/C=C/C(=O)N2CCSC(c3ccc(-c4ccccc4)cc3)C2)cc1OC (centres unmarked)
Assigned Label: Not satisfied

With those in mind, consider the next compound.
Decide: IC50 of COc1ccc(/C=C/C(=O)N2CC(c3ccc(-c4ccccc4)cc3)Sc3ccccc32)cc1OC (centres unmarked) strictly below 80 µM? Satisfied
